Entry source: PubChem BioAssay AID485344

Entries and their inhibition values follow.
Target: D(2) dopamine receptor (Homo sapiens) (UniProt P14416)
Sequence (P14416 whole entry, looked up): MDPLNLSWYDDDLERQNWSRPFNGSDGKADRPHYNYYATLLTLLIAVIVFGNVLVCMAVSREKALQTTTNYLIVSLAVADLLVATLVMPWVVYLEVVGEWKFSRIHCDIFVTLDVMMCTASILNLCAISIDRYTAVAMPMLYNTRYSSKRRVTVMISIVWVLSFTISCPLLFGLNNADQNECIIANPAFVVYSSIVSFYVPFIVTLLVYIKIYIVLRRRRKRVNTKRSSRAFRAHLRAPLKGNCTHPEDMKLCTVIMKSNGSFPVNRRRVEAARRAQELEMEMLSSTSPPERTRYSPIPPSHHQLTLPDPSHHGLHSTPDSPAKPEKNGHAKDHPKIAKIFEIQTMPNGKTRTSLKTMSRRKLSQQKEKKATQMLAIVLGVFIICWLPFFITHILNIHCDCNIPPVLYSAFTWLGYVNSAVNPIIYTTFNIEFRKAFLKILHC
Experiment: HTS Assay for Allosteric Antagonists of the Human D2 Dopamine Receptor: Primary Screen for Antagonists; further: 0% is about no effect
Details: HEK293 TREx D2 cells, calcium flux, dopamine EC80; at 10 µM; active compounds read high
The campaign covered roughly 340,000 compounds. About 6,900 (2%) were called active. What follows is part of a selection rich in actives, with near analogues and random picks from the rest.
Value kind: inhibition (%)

CC(C)(c1ccccc1)c1ccc(OCCN2CCCC2)cc1 = 0.0464
Cc1ccccc1NC(=O)Cc1nc(COC(=O)c2ccc(C(F)(F)F)cc2)cs1 = 2.02
Cc1ccc(C(C)C)cc1OCCN1CCCC1 = -14.6
CC(C)C[C@H](NC(=O)C1CCC(CNC(=O)[C@@H]2CCCN2C(=O)OC(C)(C)C)CC1)C(=O)O (stereo partly specified) = -15.8
CCOc1ccc(S(=O)(=O)N2CCC(C(=O)NCC(=O)Nc3cccc(Cl)c3C)CC2)cc1 = 0.735
COc1cc(CNCc2ccc(OC)c3ccccc23)cc(OC)c1OC = 33
COC(=O)Cc1cc(=O)n(-c2nc3ccccc3s2)[nH]1 = 36.2
CN(CC(=O)NCC(c1ccccc1)N1CCCC1)S(=O)(=O)c1ccc(Cl)cc1 (stereo unspecified) = 11.7
COc1cccc(OCCCN2CCCCCC2)c1 = -12.6
O=[N+]([O-])c1ccccc1OCCCCN1CCCCC1 = 93.9
CC(=O)Nc1ccc(S(=O)(=O)N2CCN(CCCOc3cc(C)ccc3C)CC2)cc1 = 3.73

* * *

Target: D(2) dopamine receptor (Homo sapiens) (UniProt P14416)
Assay: HTS Assay for Allosteric Antagonists of the Human D2 Dopamine Receptor: Primary Screen for Antagonists; further: 0% is about no effect
Conditions: HEK293 TREx D2 cells, calcium flux, dopamine EC80; at 10 µM; active compounds read high
About 6,900 (2%) of roughly 340,000 compounds were called active. The list comes from a sample in which actives are over-represented; it also holds close analogues and randomly drawn compounds.
Property: inhibition; scope: individual molecules
Value kind: inhibition (%)

COc1ccc(CC2c3cc(OC)c(OC)cc3CC[N+]2(C)CCC(=O)OCCCCCOC(=O)CC[N+]2(C)CCc3cc(OC)c(OC)cc3C2Cc2ccc(OC)c(OC)c2)cc1OC (stereo not given) = 2.9
COc1ccccc1C(=O)NCC(=O)NCCSc1ccc(Br)cc1 = -18.2
O=C(CSc1nnc(N2CCOCC2)n1-c1cccc(F)c1)N1CCN(c2ccccn2)CC1 = 4.3
COc1ccccc1N1CCN(C(=O)c2ccc(Cl)c(S(=O)(=O)N3CCCC3)c2)CC1 = -0.604
COc1ccc([C@H]2CC(=O)C=C(/C=C/c3ccccc3)C2)cc1 = 11.1
COc1ccccc1N1CCN(C(=O)c2c(-c3c(Cl)cccc3Cl)noc2C)CC1 = 40
CSc1ccc(CCNC(=O)CS(=O)(=O)Cc2nc(-c3ccccc3F)oc2C)cc1 = -16.4
CC(C)COc1ccc(C(=O)OCC(=O)NCCC2=CCCCC2)cc1 = 5.26
Cc1ccc(CN2CC(C(=O)N3CCN(S(=O)(=O)c4ccccc4)CC3)CC2=O)cc1 (stereo not given) = -4.27
Cc1noc(C)c1C(=O)NCC1COc2ccccc2O1 (stereo not given) = 42

* * *

Target: D(2) dopamine receptor (Homo sapiens) (UniProt P14416)
Test: HTS Assay for Allosteric Antagonists of the Human D2 Dopamine Receptor: Primary Screen for Antagonists; further: 0% is about no effect
Conditions: HEK293 TREx D2 cells, calcium flux, dopamine EC80; at 10 µM; active compounds read high
Description: NIH Chemical Genomics Center [NCGC] NIH Molecular Libraries Probe Centers Network [MLPCN] […] Freshly passaged cells are plated in 1536 well black, clear bottom plates at a density of 4000 cells/well in 3 ul of complete media containing 1x tetracycline inducer. […] Agonist read: A 10 cycle (1 second/cycle) baseline measurement is taken and then the FDSS online 1536 pintool delivers 23 nl of compound library (as well as dopamine controls) to the plate. […]
The campaign covered roughly 340,000 compounds. About 6,900 (2%) were called active. Only a selection was taken, and actives are over-represented in it overall.
Value kind: inhibition (%)

O=C(Nc1ccc(-n2cccn2)cc1)C1CCN(Cc2ccsc2)CC1 = 0.479
O=C(CNC(=O)c1ccc2ccccc2c1)Nc1ncccc1O = 6.52
O=C(Nc1cccc(-c2cscn2)c1)C1CCN(Cc2ccsc2)CC1 = 48.1
Cc1cc(C)n2nc(C(=O)Nc3cccc(S(=O)(=O)N4CCOCC4)c3)nc2n1 = 7.16
Nc1nnc(SCC(=O)NCC(=O)Nc2ccc(F)c(F)c2F)s1 = 17.4
CC1(C)O[C@@H]2[C@H](O1)[C@@H](CO)O[C@H]2n1c(N2CCCCC2)nc2c(N)ncnc21 = 15.7
Clc1ccc(C[n+]2cc(-c3ccc(Cl)cc3)n3c2CCC3)cc1 = 44.4
CCCCc1ccc(NS(=O)(=O)c2cccc(C(=O)N3CCCN(C)CC3)c2)cc1 = 16.6
Cc1ccc(-c2c[n+](CC(=O)Nc3ccccc3)c3n2CCC3)cc1 = 7.8
Clc1ccc(C[n+]2cc(-c3ccccc3)n3c2CCC3)cc1 = -18.7
CCCn1nnnc1NCc1ccc(OC)cc1 = -21.1

* * *

Molecular target: D(2) dopamine receptor (Homo sapiens) (UniProt P14416)
Assay: HTS Assay for Allosteric Antagonists of the Human D2 Dopamine Receptor: Primary Screen for Antagonists; further: 0% is about no effect
Settings: HEK293 TREx D2 cells, calcium flux, dopamine EC80; at 10 µM
About 6,900 (2%) of roughly 340,000 compounds were called active. Cut-off read from the data, not from the text of the source: active = inhibition above about 30%; inactive = below that, where a call was filed. The entries come from a sample that favours actives as a whole.
Outcomes: active, inactive

Cc1ccc2[nH]c(=O)c(CN3CCCCC3)c(-c3ccccc3)c2c1 = inactive
O=C(O)c1cccnc1Sc1ncnc2sc3c(c12)CCC3 = active
O=C1CN(C(=O)CN2C(=O)NC3(CCCCC3)C2=O)c2ccccc2N1 = inactive
CCCSc1ncccc1C(=O)O = inactive
Cc1cc(C)nc(NC(=O)c2cccc([N+](=O)[O-])c2)c1 = inactive
O=C(NC1CCCCC1)c1ccc(-c2ccc(Cl)cc2)o1 = inactive

* * *

Target: D(2) dopamine receptor (Homo sapiens) (UniProt P14416)
Assay: HTS Assay for Allosteric Antagonists of the Human D2 Dopamine Receptor: Primary Screen for Antagonists; further: 0% is about no effect
Settings: HEK293 TREx D2 cells, calcium flux, dopamine EC80; at 10 µM
Screen size: about 340,000 compounds; about 6,900 (2%) were called active. Cut-off read from the data, not from the text of the source: active = inhibition above about 30%; inactive = below that, where a call was filed. What follows is part of a selection rich in actives, with near analogues and random picks from the rest.
Possible outcomes: class 1 (active), class 0 (inactive)

CC(C(=O)NC1CCCC1)N1CCN(S(=O)(=O)c2ccccc2Cl)CC1 (stereo unspecified) = class 0
COCCNC(=O)C1CCN(C(=O)C2CC(=O)N(c3ccc(C)cc3)C2)CC1 (stereo unspecified) = class 1
CCN(CC(=O)Nc1ccc(S(=O)(=O)N2CCCC2)cc1)CC(=O)Nc1cccc(OC)c1 = class 0
C#CCOCCOCCOCCNc1nc(N2CCN(C(=O)CCCCCCCCCCNC(=O)Cn3cc(CCCCCN)nn3)CC2)nc(N2CCN(C(=O)CCCCCCCCCCNC(=O)[C@H](CO)n3cc(CCCSC)nn3)CC2)n1 = class 0
CC(C)(C)c1ccc(S(=O)(=O)N2CCN(C(=O)c3ccc4c(c3)C(=O)N(Cc3ccncc3)C4=O)CC2)cc1 = class 0
COc1ccc(S(=O)(=O)Nc2cc(C)on2)cc1NC(C)=O = class 0
CC(=O)Oc1ccccc1C(=O)Nc1ncc([N+](=O)[O-])s1 = class 1
Cc1c(NC(=O)C(C)Oc2cccc(Cl)c2)c(=O)n(-c2ccccc2)n1C (stereo unspecified) = class 0
Cc1ccc(S(=O)(=O)N2[C@@H](c3cccc(Cl)c3)C(C(=O)O)=CC[C@H]2c2ccc(Cl)c(Cl)c2)cc1 = class 0
NS(=O)(=O)c1ccc(CCNC(=O)COC(=O)COc2cccc(C(F)(F)F)c2)cc1 = class 0
O=S(=O)(NCCc1ccccn1)c1cc(Cl)cc(Cl)c1O = class 0
O=C(c1ccc(F)cc1)C1CCN(Cc2cn[nH]c2-c2ccccc2)CC1 = class 1
Cc1cc(F)ccc1S(=O)(=O)Nc1ccc(C(=O)N(C)Cc2ccco2)cc1 = class 0
O=C(Nc1cccc(NC(=O)c2ccccc2[N+](=O)[O-])c1)c1ccccc1Cl = class 0
CCOC(=O)c1sc2nc(SC)nc(-c3ccccc3)c2c1N = class 1
Cc1ccc(N2CC(C(=O)NCCS(=O)(=O)N3CCN(c4ccccc4)CC3)CC2=O)cc1 (stereo unspecified) = class 0
Cc1ccc2c(c1)N(C(=O)CCC(=O)NCc1cccnc1)CCO2 = class 0
CCOc1ccc(NS(=O)(=O)c2ccc(Cl)c(C(=O)N(C)Cc3cccnc3)c2)cc1 = class 0
CC1CCCN(C(=O)c2cc(-c3ccco3)nc3ccccc23)C1 (stereo unspecified) = class 0
CCCC(C)NC(=O)C1CCN(C(=O)C2CC(=O)N(c3ccc(C)cc3)C2)CC1 (stereo unspecified) = class 1
Cc1ccc2[nH]c3c(c2c1)CN(C(=O)CN1CCN(c2ccccc2)CC1)CC3 = class 0
CNC(=O)C1CC(=O)N(c2ccc(OCC(=O)Nc3ccccc3C)cc2)C1 (stereo unspecified) = class 0
COCCCNC(=O)C1CC(=O)N(c2ccc(C)cc2)C1 (stereo unspecified) = class 0
O=C(C1CC(=O)N(c2ccc(Br)cc2)C1)N1CCCC1 (stereo unspecified) = class 0
CCC1(CC)NC(=O)N(CC(=O)OCC(=O)c2cc(C)c(C)cc2C)C1=O = class 0
CCc1ccc(N2CC(C(=O)N3CCCCCC3)CC2=O)cc1 (stereo unspecified) = class 0
O=C(C1Cc2ccccc2CN1C(=O)c1ccco1)N1CCN(c2ccccc2)CC1 (stereo unspecified) = class 0
CC1CCN(C(=O)COC(=O)c2cc(=O)[nH]c3ccccc23)CC1 = class 0
O=C(CCCN1CCc2[nH]c3ccc(F)cc3c2C1)c1ccc(F)cc1 = class 1
COc1cc(C(=O)Nc2ncccc2C)ccc1OCC(=O)N1CCOCC1 = class 0
O=C(CN1CCCCCC1)Nc1ccc(S(=O)(=O)N2CCCCC2)cc1 = class 0
CC1CN(C(=O)CCC(=O)NC2CCN(Cc3ccccc3)CC2)c2ccccc2O1 (stereo unspecified) = class 0
Cc1ccc(F)cc1NC(=O)CSCc1c(C)noc1C = class 0
CCOC(=O)C(=O)Nc1nc(-c2ccccc2)c(CC)s1 = class 0
CC(C)C(=O)Nc1cccc(NC(=O)c2ccc([N+](=O)[O-])cc2Cl)c1 = class 1
Cc1ccc(S(=O)(=O)NCCNC(C)c2ccc(Br)cc2)cc1 (stereo unspecified) = class 0
O=C(CN1CCN(C2CCS(=O)(=O)C2)CC1)N1N=C(c2ccc(Cl)cc2)CC1c1ccco1 (stereo unspecified) = class 0
O=C(Nc1ccncc1)c1ccc([N+](=O)[O-])cc1Cl = class 0
CC(NC(=O)c1ccccc1F)c1cccc2ccccc12 (stereo unspecified) = class 0
CCC(C)N(C(=O)Cn1nc(C)c([N+](=O)[O-])c1C)C1CCS(=O)(=O)C1 (stereo unspecified) = class 0
Nc1cc(N)nc(SCC(=O)Nc2cccc(S(=O)(=O)N3CCCCC3)c2)n1 = class 0
